- Test system: cardiac fibroblast RAT-iCell-C002
- METHOD DESCRIPTION: Anti-fibrosis activity test: inhibition of proliferation of cardiac fibroblast RAT-iCell-C002 (CCK-8)
- Format: cell-based
- MEASUREMENT CONDITIONS: Cardiac fibroblast, 48 h, RAT-iCell-C002 cells, CCK-8
ENDPOINT: IC50

The cases that follow already have their IC50 on record.
# MOLECULE, SYSTEM NAME, RESULT
measured = [
    ("Cc1cc2[nH]c3c(c(=O)c2cc1C)C(=O)n1cccc1-3 [Compound 756a]", "cardiac fibroblast RAT-iCell-C002", "0.05 to 5 mM"),
    ("Cc1cccc2c(O)c3c(nc12)-c1cccn1C3=O [Compound 732b]", "cardiac fibroblast RAT-iCell-C002", "0.05 to 5 mM"),
    ("O=C1c2c(n(C3CC3)c3ccccc3c2=O)-c2cccn21 [Compound 673a]", "cardiac fibroblast RAT-iCell-C002", "0.05 to 5 mM"),
    ("Cc1cccc2[nH]c3c(c(=O)c12)C(=O)n1cccc1-3 [Compound 678a]", "cardiac fibroblast RAT-iCell-C002", "0.05 to 5 mM"),
    ("O=C1c2nc3ccccc3c(OCCCN3CCCCC3)c2-c2cccn21 [Compound 786b]", "cardiac fibroblast RAT-iCell-C002", "0.05 to 5 mM"),
    ("O=C1c2c(c(=O)c3ccccc3n2CCCCN2CCOCC2)-c2cccn21 [Compound 789a]", "cardiac fibroblast RAT-iCell-C002", "0.05 to 5 mM"),
    ("O=C1c2nc3ccccc3c(OCc3ccc(-c4ccccc4)cc3)c2-c2cccn21 [Compound 796b]", "cardiac fibroblast RAT-iCell-C002", "0.05 to 5 mM"),
    ("CCOCCCOc1c2c(nc3ccccc13)-c1cccn1C2=O [Compound 672b]", "cardiac fibroblast RAT-iCell-C002", "0.05 to 5 mM"),
]

// moving on: another record for IC50
Input line: IC50 for O=C1c2c(n(Cc3ccccc3[N+](=O)[O-])c3ccccc3c2=O)-c2cccn21 [Compound 668a] ?
Output line: 0.05 to 5 mM

###

- Tested on: BHK-21 cells
- METHOD DESCRIPTION: Anti-fibrosis activity test: inhibition of BHK-21 cell proliferation (CCK-8)
- Format: cell-based
- MEASUREMENT CONDITIONS: Mesocricetus auratus, BHK-21, 48 h, CCK-8, 48 hours after administration
Listed compounds paired with reported IC50

Previously resolved entries follow.
# COMPOUND, IC50
data = [
    ("N#Cc1ccccc1Cn1c2c(c(=O)c3ccccc31)C(=O)n1cccc1-2 [Compound 577a]", "0.05 to 5 mM"),
    ("O=C1c2c(nc3ccccc3c2OCc2ccccc2)-c2cccn21 [Compound 103b]", "0.05 to 5 mM"),
]

Input line: Record request: IC50 value, item O=C1c2c(nc3ccccc3c2OCc2cc(C(F)(F)F)cc(C(F)(F)F)c2)-c2cccn21 [Compound 607b]
Output line: 0.05 to 5 mM

Input line: Likewise for COCCn1c2c(c(=O)c3ccccc31)C(=O)n1cccc1-2 [Compound 652a] ?
Output line: 0.05 to 5 mM

Input line: Try this compound next: N#Cc1ccccc1-c1ccc(Cn2c3c(c(=O)c4cc(F)c(N5CCNCC5)cc42)C(=O)n2cccc2-3)cc1 [Compound 638a]
Output line: 0.05 to 5 mM

Input line: Further, for O=C1c2c(nc3c(Cl)cccc3c2OCc2ccccc2F)-c2cccn21 [Compound 460b] ?
Output line: 0.05 to 5 mM

Input line: And for CC(C)CCOc1c2c(nc3cc(N4CCNCC4)c(F)cc13)-c1cccn1C2=O [Compound 347b] ?
Output line: 0.05 to 5 mM

Input line: Follow-up item: O=C1c2c(n(Cc3ccc(OC(F)(F)F)cc3)c3ccccc3c2=O)-c2cccn21 [Compound 592a]
Output line: 0.05 to 5 mM
